// Ki lookup, one value per entry
- Test System: Delta-type opioid receptor (Homo sapiens, UniProt P41143)
- Sequence (P41143 whole entry): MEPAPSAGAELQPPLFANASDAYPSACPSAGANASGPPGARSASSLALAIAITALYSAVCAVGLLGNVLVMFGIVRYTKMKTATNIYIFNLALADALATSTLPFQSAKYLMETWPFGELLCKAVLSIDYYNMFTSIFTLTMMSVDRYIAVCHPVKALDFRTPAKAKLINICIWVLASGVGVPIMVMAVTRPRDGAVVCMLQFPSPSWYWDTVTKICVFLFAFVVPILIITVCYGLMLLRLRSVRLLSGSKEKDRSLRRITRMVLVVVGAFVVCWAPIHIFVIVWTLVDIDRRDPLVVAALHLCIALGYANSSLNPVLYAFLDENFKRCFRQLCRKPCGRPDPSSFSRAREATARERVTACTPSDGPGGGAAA
- Procedure Details: Displacement of [3H]deltrophin-2 from human recombinant DOR expressed in CHO cell membranes incubated for 2 hrs by liquid scintillation counting method
Please report the result as a number followed by the unit.

Field: example entries. Status: answers known.
Smiles Str | Ki
Cc1cc(O)c(Cl)c(C)c1C[C@H](N)C(=O)N1CCC[C@H]1C(=O)N[C@@H](Cc1ccccc1)C(=O)N[C@@H](Cc1ccccc1)C(N)=O | 0.9 µM
Cc1cc(C[C@H](N)C(=O)N2CCC[C@H]2C(=O)N[C@@H](Cc2ccccc2)C(=O)N[C@@H](Cc2ccccc2)C(N)=O)cc(C)c1O | 5.26 µM
COc1cc(C[C@H](N)C(=O)N2CCC[C@H]2C(=O)N[C@@H](Cc2ccccc2)C(=O)N[C@@H](Cc2ccccc2)C(N)=O)cc(OC)c1O | 10.6 µM
NC(=O)[C@H](Cc1ccccc1)NC(=O)[C@H](Cc1ccccc1)NC(=O)[C@@H]1CCCN1C(=O)[C@@H](N)Cc1cccc(O)c1 | 12.7 µM

As a next step, examine the compound that follows.
Challenge: I would be grateful if you could share the reported Ki for `Cc1cc(O)cc(C)c1C[C@H](N)C(=O)N1CCC[C@H]1C(=O)N[C@@H](Cc1ccccc1)C(=O)N[C@@H](Cc1ccccc1)C(N)=O` .
Response given: 0.283 µM

###

- Test System: Mu-type opioid receptor (Homo sapiens)
- Procedure Details: Displacement of [3H]DAMGO from human recombinant MOR expressed in CHO cell membranes incubated for 2 hrs by liquid scintillation counting method
Each record here notes measured pKi.
Lab note — pKi values are minus log10 of concentrations in M.

Illustrative cases are given below, each with its answer.
Smiles Str | Readout Value
NC(=O)[C@H](Cc1ccccc1)NC(=O)[C@H](Cc1ccccc1)NC(=O)[C@@H]1CCCN1C(=O)[C@@H](N)Cc1cccc(O)c1 | 7.72
Cc1cc(C[C@H](N)C(=O)N2CCC[C@H]2C(=O)N[C@@H](Cc2ccccc2)C(=O)N[C@@H](Cc2ccccc2)C(N)=O)cc(C)c1O | 8.30
Cc1cc(O)cc(C)c1C[C@H](N)C(=O)N1CCC[C@H]1C(=O)N[C@@H](Cc1ccccc1)C(=O)N[C@@H](Cc1ccccc1)C(N)=O | 9.09
Cc1cc(O)c(Cl)c(C)c1C[C@H](N)C(=O)N1CCC[C@H]1C(=O)N[C@@H](Cc1ccccc1)C(=O)N[C@@H](Cc1ccccc1)C(N)=O | 9.59

Kindly consider the entry below.
Challenge: pKi lookup needed for `COc1cc(C[C@H](N)C(=O)N2CCC[C@H]2C(=O)N[C@@H](Cc2ccccc2)C(=O)N[C@@H](Cc2ccccc2)C(N)=O)cc(OC)c1O` , thanks.
Response given: 8.36

###

Below, each entry is listed with its recorded Retention_time.
- Procedure Details: Retention time of the compound by RP-HPLC analysis
- Assay type: physicochemical

Smiles Str | Retention_time
Cc1cc(O)c(Cl)c(C)c1C[C@H](N)C(=O)N1CCC[C@H]1C(=O)N[C@@H](Cc1ccccc1)C(=O)N[C@@H](Cc1ccccc1)C(N)=O | 16.122

Challenge: Retention_time for `NC(=O)[C@H](Cc1ccccc1)NC(=O)[C@H](Cc1ccccc1)NC(=O)[C@@H]1CCCN1C(=O)[C@@H](N)Cc1cccc(O)c1` ?
Response given: 15.168 min

Challenge: # lookup: Retention_time of `COc1cc(C[C@H](N)C(=O)N2CCC[C@H]2C(=O)N[C@@H](Cc2ccccc2)C(=O)N[C@@H](Cc2ccccc2)C(N)=O)cc(OC)c1O`
Response given: 14.83 min

Challenge: # query: Retention_time of entry `Cc1cc(C[C@H](N)C(=O)N2CCC[C@H]2C(=O)N[C@@H](Cc2ccccc2)C(=O)N[C@@H](Cc2ccccc2)C(N)=O)cc(C)c1O`
Response given: 16.508 min

Challenge: Which value of Retention_time has been reported for `Cc1cc(O)cc(C)c1C[C@H](N)C(=O)N1CCC[C@H]1C(=O)N[C@@H](Cc1ccccc1)C(=O)N[C@@H](Cc1ccccc1)C(N)=O` in the records?
Response given: 16.484 min

###

Below, each of the compounds is paired with its reported pKi value.
- Test System: UniProt:P41145
- Sequence (P41145 whole entry): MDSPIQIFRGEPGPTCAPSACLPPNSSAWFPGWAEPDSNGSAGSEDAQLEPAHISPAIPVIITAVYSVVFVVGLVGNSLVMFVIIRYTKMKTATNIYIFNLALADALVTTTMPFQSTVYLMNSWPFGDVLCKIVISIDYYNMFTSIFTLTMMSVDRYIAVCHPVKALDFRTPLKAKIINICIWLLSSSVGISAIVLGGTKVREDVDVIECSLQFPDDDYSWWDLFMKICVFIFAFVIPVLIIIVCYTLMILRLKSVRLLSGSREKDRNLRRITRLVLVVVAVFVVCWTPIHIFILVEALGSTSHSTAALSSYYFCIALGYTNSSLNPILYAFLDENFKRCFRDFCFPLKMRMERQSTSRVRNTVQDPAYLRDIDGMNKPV
- Procedure Details: Displacement of [3H]U-69593 from human recombinant KOR expressed in CHO cell membranes incubated for 2 hrs by liquid scintillation counting method
Please keep in mind that pKi is minus log10 of the molar concentration; only the number is needed.

Smiles Str | Test System | Readout Value
Cc1cc(C[C@H](N)C(=O)N2CCC[C@H]2C(=O)N[C@@H](Cc2ccccc2)C(=O)N[C@@H](Cc2ccccc2)C(N)=O)cc(C)c1O | UniProt:P41145 | 5.33
COc1cc(C[C@H](N)C(=O)N2CCC[C@H]2C(=O)N[C@@H](Cc2ccccc2)C(=O)N[C@@H](Cc2ccccc2)C(N)=O)cc(OC)c1O | UniProt:P41145 | 5.35
NC(=O)[C@H](Cc1ccccc1)NC(=O)[C@H](Cc1ccccc1)NC(=O)[C@@H]1CCCN1C(=O)[C@@H](N)Cc1cccc(O)c1 | UniProt:P41145 | 5.04

Challenge: # pKi lookup, item `Cc1cc(O)c(Cl)c(C)c1C[C@H](N)C(=O)N1CCC[C@H]1C(=O)N[C@@H](Cc1ccccc1)C(=O)N[C@@H](Cc1ccccc1)C(N)=O`
Response given: 7.43

###

- Test System: Mu-type opioid receptor (Homo sapiens, UniProt P35372)
- Sequence (P35372 whole entry): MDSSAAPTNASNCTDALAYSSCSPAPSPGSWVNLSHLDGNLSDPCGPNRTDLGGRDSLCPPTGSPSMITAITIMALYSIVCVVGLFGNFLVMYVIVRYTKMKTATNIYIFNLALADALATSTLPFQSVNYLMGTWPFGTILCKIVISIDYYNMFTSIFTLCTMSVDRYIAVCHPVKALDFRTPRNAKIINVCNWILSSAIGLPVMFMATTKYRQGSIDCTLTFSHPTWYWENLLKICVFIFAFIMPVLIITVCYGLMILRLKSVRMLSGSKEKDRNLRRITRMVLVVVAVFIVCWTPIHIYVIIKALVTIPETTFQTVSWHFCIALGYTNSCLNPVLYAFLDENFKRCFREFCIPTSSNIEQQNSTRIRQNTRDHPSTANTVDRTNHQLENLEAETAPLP
- Procedure Details: Agonist activity at human recombinant MOR expressed in CHO cells co-expressing C-terminally modified Galphaqi5 assessed as induction of calcium mobilization by Fluo-4AM dye-based fluorescence assay
As shown below, each of these molecules has a reported log10(EC50) value.
Values reflect log10 of reported EC50 (nM).

Worked set:
Smiles Str | Value Type | Readout Value
NC(=O)[C@H](Cc1ccccc1)NC(=O)[C@H](Cc1ccccc1)NC(=O)[C@@H]1CCCN1C(=O)[C@@H](N)Cc1cccc(O)c1 | log10(EC50) | 1.65
Cc1cc(C[C@H](N)C(=O)N2CCC[C@H]2C(=O)N[C@@H](Cc2ccccc2)C(=O)N[C@@H](Cc2ccccc2)C(N)=O)cc(C)c1O | log10(EC50) | 0.98
COc1cc(C[C@H](N)C(=O)N2CCC[C@H]2C(=O)N[C@@H](Cc2ccccc2)C(=O)N[C@@H](Cc2ccccc2)C(N)=O)cc(OC)c1O | log10(EC50) | 0.90
Cc1cc(O)c(Cl)c(C)c1C[C@H](N)C(=O)N1CCC[C@H]1C(=O)N[C@@H](Cc1ccccc1)C(=O)N[C@@H](Cc1ccccc1)C(N)=O | log10(EC50) | -0.21

Here is the next item to consider.
Challenge: I have this molecule here, `Cc1cc(O)cc(C)c1C[C@H](N)C(=O)N1CCC[C@H]1C(=O)N[C@@H](Cc1ccccc1)C(=O)N[C@@H](Cc1ccccc1)C(N)=O` , and I need its recorded log10(EC50).
Response given: 0.22

###

In this section we review reported Intrinsic activity values for a set of compounds.
- Test System: Mu-type opioid receptor (Homo sapiens)
- Procedure Details: Agonist activity at human recombinant MOR expressed in CHO cells co-expressing C-terminally modified Galphaqi5 assessed as induction of calcium mobilization by Fluo-4AM dye-based fluorescence assay relative to endomorphin-2
- Format: functional, cell-based
Just the number.

Solved entries:
Smiles Str | Test System | Intrinsic activity
Cc1cc(O)c(Cl)c(C)c1C[C@H](N)C(=O)N1CCC[C@H]1C(=O)N[C@@H](Cc1ccccc1)C(=O)N[C@@H](Cc1ccccc1)C(N)=O | Mu-type opioid receptor (Homo sapiens) | 0.92
Cc1cc(O)cc(C)c1C[C@H](N)C(=O)N1CCC[C@H]1C(=O)N[C@@H](Cc1ccccc1)C(=O)N[C@@H](Cc1ccccc1)C(N)=O | Mu-type opioid receptor (Homo sapiens) | 0.91

Challenge: Intrinsic activity lookup needed for `Cc1cc(C[C@H](N)C(=O)N2CCC[C@H]2C(=O)N[C@@H](Cc2ccccc2)C(=O)N[C@@H](Cc2ccccc2)C(N)=O)cc(C)c1O` , thanks.
Response given: 1.04

Challenge: What value of measured Intrinsic activity is listed for `COc1cc(C[C@H](N)C(=O)N2CCC[C@H]2C(=O)N[C@@H](Cc2ccccc2)C(=O)N[C@@H](Cc2ccccc2)C(N)=O)cc(OC)c1O` ?
Response given: 1.1

Challenge: Reported Intrinsic activity, compound `NC(=O)[C@H](Cc1ccccc1)NC(=O)[C@H](Cc1ccccc1)NC(=O)[C@@H]1CCCN1C(=O)[C@@H](N)Cc1cccc(O)c1` : ____
Response given: 0.87
